system: SK-OV-3; assay: Cytotoxicity against human SKOV3 cells after 72 hrs by MTT assay; type: functional, cell-based; conditions: SK-OV-3, 72 h
Entries annotated with measured pIC50
API: returns pIC50 as number; meaning -log10 of concentration in mol/L.

CC(C)C[C@H](NC(=O)CC(NC(=O)c1ccc2ccccc2c1)c1cccc(F)c1)B(O)O (some centres not stated)	5.06

Now for another entry.
Supply recorded pIC50 for CC(C)C[C@H](NC(=O)[C@H](Cc1ccccc1)NC(=O)c1cnccn1)B(O)O here.
7.18

====

experiment: AUC (0-t) in Sprague-Dawley rat at 1 mg/kg, iv; assay type: ADME, organism-based; design: dose 1 mg/kg, route intravenous; conditions: plasma
Experimental Endpoint: AUC(0-t) (ng·h/mL)
Give just the numeric value; ng·h/mL need not be written.

// fetch AUC(0-t) given entry CC(C)C[C@H](NC(=O)CC(NC(=O)c1ccc2ccccc2c1)c1cccc(F)c1)B(O)O (stereo partly specified)
1710
